Molecular target: human-mouse chimeric EL (construct not specified)
Experiment: cell-based or functional assay
# Neutralizing activity IC50 per record follows
Write the answer as a number in nM, unit excluded.

binder: 7D4 (antibody, mouse IgG1, V domains shown, mouse IgG1 from hybridoma) VH: QIQLVQSGPELKKPGETVKISCKASGYTFTNYGMNWVKQAPGKDLKWMGWINTYSGVPTYADDFKGRFAFSLETSASTAYLQINNLKNEDTATYFCARFSYYGRHYFDYWGQGTTLTVSS VL: DIVLTQSPASLAVSLGQRATISCKASQSVDYDGDSYMNWYQQKPGQPPQLLIYAASNLGSGIPARFSGSGSGTDFTLNIHPVEEEDAATYYCHQSTDDPPWTFGGGTKLEIK
endpoint result: 3.7
--
binder: 16E7 (antibody, mouse IgG1, V domains shown, mouse IgG1 from hybridoma) VH: EVKLVESGGGLVQPGGSLKLSCAASGFTFSSYTMSWVRQTPEKRLELVAEISFTRSRAFYPDTVKGRFTISRDNAKNTLYLQMSSLKSEDTAMYYCARLGGNNYDYWYFDVWGTGTTVTVSS VL: DIVLTQSPTSLAVSLGQRATISCRASESVEYYGTSLMQWYQQKPGQRPKLLIYAASNVESGVPARFSGSGSGTDFSLNIHPVEEDDIAMYFCQQSWKVPFTFGSGTKLEIK
endpoint result: 1.1

Recorded result, 23H8 (antibody, mouse IgG2a, V domains shown, mouse IgG2a from hybridoma; also called 23H8 (mouse mAb)) VH: EVQLQQSGPELLKPGASVKISCKASGYTFTDNTIHWVKQSHGKSLEWIGHINPYYGGTNNNEKFKDKATLTVDKSSSTAYMELRSLTSEDSAIYYCARKGIYYSSPFDYWGQGTTLTVSS VL: DIQMTQTTSSLSASLGDRVTISCRASQDINNYLNWYQQKPDGTVKLLISYTSKLHSGVPSRFSGSGSGTDYSLTISNLEREDFATYFCQQGNTLPFTFGSGTNLEIK , Neutralizing activity IC50: 1.7

Entry 19E7 (antibody, mouse IgG2a, V domains shown, mouse IgG2a from hybridoma; also called 19E1(19E7)) VH: QVQLQQPGSVLVRPGASVKLSCKASGYTFTTYWMHWVKQRPGQGLEWIGEIHPYSGNNNNNEKFKGKATLTVDTSSSTAYVDLSRLTSEDSAVYYCARYDSNYVFAYWGQGTLVTVSA VL: QIVLTQSPAIMSASPGEGVTITCSASSSVSYMHWFQQKPGTSPKLWIYSTSNLASGVPARFSGSGSGTSYSLTISRMEAEDAATYYCQQRDSYLTFGSGTKLEVK ; Neutralizing activity IC50 = 2.4

The binder 14A1 (antibody, mouse IgG1, V domains shown, mouse IgG1 from hybridoma) VH: QIQLVQSGPELKKPGETVKISCKASGYTFTNYGMNWVKQAPGKGLKWMGWINTYSGVPTYADDFKGRFAFSLETSASTAYLQINNFKNEDTATYFCARFSYYGRHYFDYWGQGTALTASS VL: DIVLTQSPASLAVSLGQRATISCKASQSVDYDGDSYMNWYQQKPGQPPKLLIYAASNLKSGIPARFSGSGSGTDFTLNIHPVEEEDAATYYCQQTTDDPPWTFGGGTKLEIK showed Neutralizing activity IC50 equal to 5.8
